System: Trichophyton rubrum
Experiment: MIC (Minimum Inhibitory Concentration)
Type: cell-based
Conditions: Trichophyton rubrum 218-65, read-out: MIC values
This section presents compounds with their documented MIC values.

Compound	Sign qualifier	MIC / µg/mL
[C-]#[N+]C(=Cc1ccco1)S(=O)(=O)c1ccc(C)cc1	=	0.1
[C-]#[N+]C(C(C)=CC)S(=O)(=O)c1ccc(C)cc1 (stereo not shown) [Example 27b]	=	1.5
C[C@@H]1C/C=C/C=C/C=C/C=C/[C@H](O[C@@H]2O[C@H](C)[C@@H](O)[C@H](N)[C@@H]2O)C[C@@H]2O[C@](O)(C[C@@H](O)C[C@H]3O[C@@H]3/C=C/C(=O)O1)C[C@H](O)[C@H]2C(=O)O [natamycin, reference compound]	=	12.5
[C-]#[N+]C(=Cc1cccn1C)S(=O)(=O)c1ccc(C)cc1	=	50
[C-]#[N+]C(=CCCC)S(=O)(=O)c1ccc(C)cc1	=	25
[C-]#[N+]C(=C(C)c1ccco1)S(=O)(=O)c1ccc(C)cc1	=	0.8
[C-]#[N+]C(=Cc1ccc(Cl)cc1)S(=O)(=O)c1ccc(C)cc1	=	1.5
[C-]#[N+]C(=C(C)c1ccccc1)S(=O)(=O)c1ccc(C)cc1	=	3
[C-]#[N+]C(=CC(C)(C)C)S(=O)(=O)c1ccc(C)cc1	=	0.1
[C-]#[N+]C(=C(C)c1cccs1)S(=O)(=O)c1ccc(C)cc1	=	6
[C-]#[N+]C(=C(CCCC)c1ccccc1)S(=O)(=O)c1ccc(C)cc1	>	100
[C-]#[N+]C(C1=CCOCC1)S(=O)(=O)c1ccc(C)cc1 (stereo not shown) [Example 14b]	=	3
[C-]#[N+]C(=C(CCCCC)CCCCC)S(=O)(=O)c1ccc(C)cc1	=	100
[C-]#[N+]C(=Cc1ccc(OC)cc1)S(=O)(=O)c1ccc(C)cc1	=	25
[C-]#[N+]C(=C(C)CC)S(=O)(=O)c1ccc(C)cc1 [Example 27a]	=	0.4
[C-]#[N+]C(=C(C)C)S(=O)(=O)c1ccc(C)cc1	=	0.4
[C-]#[N+]C(C1=CCSCC1)S(=O)(=O)c1ccc(C)cc1 (stereo not shown) [Example 16b]	=	1.5
Clc1ccc(COC(Cn2ccnc2)c2ccc(Cl)cc2Cl)c(Cl)c1 (stereo not shown) [miconazole, reference compound]	=	0.1
[C-]#[N+]C(=C(C)c1ccc([N+](=O)[O-])cc1)S(=O)(=O)c1ccc(C)cc1	=	3

* * *

Test system: Candida albicans
Assay: MIC (Minimum Inhibitory Concentration)
Type: cell-based
Conditions: Candida albicans A 3169, read-out: MIC values

Compound	MIC
[C-]#[N+]C(=Cc1ccc(OC)cc1)S(=O)(=O)c1ccc(C)cc1	1.5 µg/mL
[C-]#[N+]C(=CCCC)S(=O)(=O)c1ccc(C)cc1	25 µg/mL
[C-]#[N+]C(C(C)=CC)S(=O)(=O)c1ccc(C)cc1 (centres unmarked) [Example 27b]	0.4 µg/mL
[C-]#[N+]C(=CC(C)(C)C)S(=O)(=O)c1ccc(C)cc1	100 µg/mL
[C-]#[N+]C(=C(C)c1cccs1)S(=O)(=O)c1ccc(C)cc1	1.5 µg/mL

* * *

Tested on: Candida albicans
Assay: MIC (Minimum Inhibitory Concentration)
Assay type: cell-based
Details: Candida albicans A 3169, read-out: MIC values
Exam item: assign fulfilled to entries whose MIC is below 6 µg/mL and not fulfilled to entries at or above 6 µg/mL. Note that a value of exactly 6 µg/mL receives not fulfilled.

Compound	Target desc	Cat
[C-]#[N+]C(=Cc1ccccc1)S(=O)(=O)c1ccc(C)cc1	Candida albicans	not fulfilled
[C-]#[N+]C(=C(C)C)S(=O)(=O)c1ccc(C)cc1	Candida albicans	not fulfilled
[C-]#[N+]C(=Cc1ccc(Cl)cc1)S(=O)(=O)c1ccc(C)cc1	Candida albicans	fulfilled
[C-]#[N+]C(=C(C)c1ccco1)S(=O)(=O)c1ccc(C)cc1	Candida albicans	fulfilled
[C-]#[N+]C(=C(CCCCC)CCCCC)S(=O)(=O)c1ccc(C)cc1	Candida albicans	not fulfilled
[C-]#[N+]C(=C(C)c1ccc([N+](=O)[O-])cc1)S(=O)(=O)c1ccc(C)cc1	Candida albicans	fulfilled
[C-]#[N+]C(=Cc1ccco1)S(=O)(=O)c1ccc(C)cc1	Candida albicans	fulfilled
[C-]#[N+]C(=C(C)CC)S(=O)(=O)c1ccc(C)cc1 [Example 27a]	Candida albicans	fulfilled
C[C@@H]1C/C=C/C=C/C=C/C=C/[C@H](O[C@@H]2O[C@H](C)[C@@H](O)[C@H](N)[C@@H]2O)C[C@@H]2O[C@](O)(C[C@@H](O)C[C@H]3O[C@@H]3/C=C/C(=O)O1)C[C@H](O)[C@H]2C(=O)O [natamycin, reference compound]	Candida albicans	fulfilled
[C-]#[N+]C(C1=CCSCC1)S(=O)(=O)c1ccc(C)cc1 (centres unmarked) [Example 16b]	Candida albicans	fulfilled
[C-]#[N+]C(=C(CCCC)c1ccccc1)S(=O)(=O)c1ccc(C)cc1	Candida albicans	fulfilled
